system: human prostate PC-3 cancer cell line; assay: In vitro cytotoxic screening (MTT assay), PC-3; format: cell-based; conditions: 50 µM; average ± standard deviation
propertyMeasured: Percentage cytotoxicity on PC-3 (%)
One number for each entry, in %.

CCOC(=O)Cc1nn2c(=O)c3c4c(sc3nc2[nH]1)CCC4: 0.0
COc1ccc(-c2nn3c(=O)c4c5c(sc4nc3[nH]2)CCC5)cc1 [Compound 10d]: 26.9
O=c1c2c3c(sc2nc2[nH]c(=S)[nH]n12)CCC3: 7.8
CC(=O)OC[C@H]1O[C@@H](n2cnn3c(=O)c4c5c(sc4nc23)CCC5)[C@H](OC(C)=O)[C@@H](OC(C)=O)[C@@H]1OC(C)=O: 0.0
O=c1c2c3c(sc2nc2nc([C@H](O)[C@@H](O)[C@@H](O)[C@H](O)CO)[nH]n12)CCC3 [Compound 11b]: 0.0
CC(=O)OC[C@@H](OC(C)=O)[C@@H](OC(C)=O)[C@H](OC(C)=O)c1nc2nc3sc4c(c3c(=O)n2[nH]1)CCC4 [Compound 12d]: 0.0

// for each compound below, give its Percentage cytotoxicity on PC-3
1. O=c1c2c3c(sc2nc2[nH]c(-c4ccc(Cl)cc4)nn12)CCC3 [Compound 10a]
2. COc1ccc(-c2nn3c(=O)c4c5c(sc4nc3n2[C@@H]2O[C@H](COC(C)=O)[C@@H](OC(C)=O)[C@H](OC(C)=O)[C@H]2OC(C)=O)CCC5)cc1

result:
1. 35.9
2. 0.0

* * *

system: human colorectal HCT-116 cancer cell line; experiment: In vitro cytotoxic screening (MTT assay), HCT-116; assay type: cell-based; settings: 100 µM; average ± standard deviation
Binning of Percentage cytotoxicity on HCT-116 into classes: low = under 9%, moderate = from 9% up to 20%, high = 20% and over

CC(=O)C/C(C)=N/n1c(N)nc2sc3c(c2c1=O)CCC3: low
CC(=O)OC[C@H]1O[C@@H](n2cnn3c(=O)c4c5c(sc4nc23)CCC5)[C@H](OC(C)=O)[C@@H](OC(C)=O)[C@@H]1OC(C)=O: moderate

query: Hi, small favor: classify `COc1ccc(-c2nn3c(=O)c4c5c(sc4nc3n2[C@@H]2O[C@H](COC(C)=O)[C@@H](OC(C)=O)[C@H](OC(C)=O)[C@H]2OC(C)=O)CCC5)cc1` by its Percentage cytotoxicity on HCT-116 when you get a moment.
result: low

query: And O=c1c2c3c(sc2nc2[nH]c(-c4ccc(Br)cc4)nn12)CCC3 [Compound 10b] ?
result: high

query: Likewise for `CC(=O)C/C(C)=N/n1c(N[C@@H]2O[C@H](COC(C)=O)[C@@H](OC(C)=O)[C@H](OC(C)=O)[C@H]2OC(C)=O)nc2sc3c(c2c1=O)CCC3` ?
result: low

query: Now the molecule CC(=O)OC[C@@H](OC(C)=O)[C@H](OC(C)=O)[C@H](OC(C)=O)[C@@H](OC(C)=O)c1nc2nc3sc4c(c3c(=O)n2[nH]1)CCC4 [Compound 12b]
result: moderate

query: What about COc1ccc(-c2nn3c(=O)c4c5c(sc4nc3[nH]2)CCC5)cc1 [Compound 10d] ?
result: moderate

* * *

tested on: human breast MCF-7 cancer cell line; test: In vitro cytotoxic screening (MTT assay), MCF-7; format: cell-based; conditions: 50 µM; average ± standard deviation
propertyMeasured: Percentage cytotoxicity on MCF-7 (%)
Numbers only, in %.

Worked examples follow.
CC(=O)OC[C@@H](OC(C)=O)[C@H](OC(C)=O)[C@H](OC(C)=O)[C@@H](OC(C)=O)c1nc2nc3sc4c(c3c(=O)n2[nH]1)CCC4 [Compound 12b]: 20.8
O=c1c2c3c(sc2nc2[nH]c(-c4ccc(Cl)cc4)nn12)CCC3 [Compound 10a]: 44.4
CC(=O)OC[C@@H](OC(C)=O)[C@@H](OC(C)=O)[C@H](OC(C)=O)c1nc2nc3sc4c(c3c(=O)n2[nH]1)CCC4 [Compound 12d]: 0.0
O=c1c2c3c(sc2nc2nc([C@@H](O)[C@@H](O)[C@H](O)[C@H](O)CO)[nH]n12)CCC3 [Compound 11c]: 16.5
CC(=O)OC[C@H]1O[C@@H](n2cnn3c(=O)c4c5c(sc4nc23)CCC5)[C@H](OC(C)=O)[C@@H](OC(C)=O)[C@@H]1OC(C)=O [Compound 14]: 0.0
O=c1c2c3c(sc2nc2[nH]c(-c4ccc(Br)cc4)nn12)CCC3 [Compound 10b]: 80.8

Hi, could you look up Percentage cytotoxicity on MCF-7 for each item in my list?
1. O=c1c2c3c(sc2nc2[nH]c(=S)[nH]n12)CCC3 [Compound 9]
2. COc1ccc(-c2nn3c(=O)c4c5c(sc4nc3n2[C@@H]2O[C@H](COC(C)=O)[C@@H](OC(C)=O)[C@H](OC(C)=O)[C@H]2OC(C)=O)CCC5)cc1 [Compound 16]
3. COc1ccc(-c2nn3c(=O)c4c5c(sc4nc3[nH]2)CCC5)cc1 [Compound 10d]
4. CC(=O)C/C(C)=N/n1c(N[C@@H]2O[C@H](COC(C)=O)[C@@H](OC(C)=O)[C@H](OC(C)=O)[C@H]2OC(C)=O)nc2sc3c(c2c1=O)CCC3 [Compound 15]
5. O=c1c2c3c(sc2nc2[nH]cnn12)CCC3 [Compound 4]
6. O=c1c2c3c(sc2nc2[nH]c(-c4ccc([N+](=O)[O-])cc4)nn12)CCC3 [Compound 10c]
7. CCOC(=O)Cc1nn2c(=O)c3c4c(sc3nc2[nH]1)CCC4 [Compound 6]

result:
32.7
0.0
47.3
0.0
35.5
25.97
0.0

Each of the following entries comes with a recorded value; kindly state Percentage cytotoxicity on MCF-7 for each.
1. O=c1c2c3c(sc2nc2nc([C@H](O)[C@@H](O)[C@@H](O)[C@H](O)CO)[nH]n12)CCC3 [Compound 11b]
2. O=c1c2c3c(sc2nc2[nH]c(-c4c5ccccc5cc5ccccc45)nn12)CCC3 [Compound 10e]
3. CC(=O)C/C(C)=N/n1c(N)nc2sc3c(c2c1=O)CCC3 [Compound 8]
4. Cc1nn2c(=O)c3c4c(sc3nc2[nH]1)CCC4 [Compound 5]
5. O=c1c2c3c(sc2nc2nc([C@@H](O)[C@H](O)[C@H](O)CO)[nH]n12)CCC3 [Compound 11d]

result:
1. 22.1
2. 97.9
3. 40.9
4. 0.0
5. 47.9

* * *

I'd be grateful if you could share measured Percentage cytotoxicity on HCT-116 for these entries.
system: human colorectal HCT-116 cancer cell line; test: In vitro cytotoxic screening (MTT assay), HCT-116; assay type: cell-based; details: 12.5 µM; average ± standard deviation
Numbers only, in %.

Respectfully, I request Percentage cytotoxicity on HCT-116 for each entry included below.
1. COc1ccc(-c2nn3c(=O)c4c5c(sc4nc3[nH]2)CCC5)cc1 [Compound 10d]
2. CCOC(=O)Cc1nn2c(=O)c3c4c(sc3nc2[nH]1)CCC4
3. CC(=O)C/C(C)=N/n1c(N[C@@H]2O[C@H](COC(C)=O)[C@@H](OC(C)=O)[C@H](OC(C)=O)[C@H]2OC(C)=O)nc2sc3c(c2c1=O)CCC3
4. CC(=O)C/C(C)=N/n1c(N)nc2sc3c(c2c1=O)CCC3

result:
0.0
0.0
0.0
0.0

Go through the list and state Percentage cytotoxicity on HCT-116 for each entry.
1. O=c1c2c3c(sc2nc2[nH]c(=S)[nH]n12)CCC3
2. O=c1c2c3c(sc2nc2[nH]c(-c4ccc(Cl)cc4)nn12)CCC3 [Compound 10a]
3. CC(=O)OC[C@@H](OC(C)=O)[C@H](OC(C)=O)[C@H](OC(C)=O)[C@@H](OC(C)=O)c1nc2nc3sc4c(c3c(=O)n2[nH]1)CCC4 [Compound 12b]
4. CC(=O)OC[C@@H](OC(C)=O)[C@@H](OC(C)=O)[C@H](OC(C)=O)c1nc2nc3sc4c(c3c(=O)n2[nH]1)CCC4 [Compound 12d]
5. O=c1c2c3c(sc2nc2[nH]c(-c4ccc(Br)cc4)nn12)CCC3 [Compound 10b]
6. O=c1c2c3c(sc2nc2[nH]c(-c4c5ccccc5cc5ccccc45)nn12)CCC3 [Compound 10e]
7. Cc1nn2c(=O)c3c4c(sc3nc2[nH]1)CCC4

result:
1. 0.0
2. 14.4
3. 0.0
4. 0.0
5. 6.2
6. 0.0
7. 0.0

Please look at the items below and tell me Percentage cytotoxicity on HCT-116 for each one, in order.
1. O=c1c2c3c(sc2nc2[nH]cnn12)CCC3
2. O=c1c2c3c(sc2nc2nc([C@H](O)[C@@H](O)[C@H](O)[C@H](O)CO)[nH]n12)CCC3 [Compound 11a]
3. O=c1c2c3c(sc2nc2nc([C@@H](O)[C@@H](O)[C@H](O)[C@H](O)CO)[nH]n12)CCC3 [Compound 11c]

result:
1: 0.0; 2: 12.94; 3: 12.7

// each listed compound needs a value for Percentage cytotoxicity on HCT-116
1. O=c1c2c3c(sc2nc2nc([C@H](O)[C@@H](O)[C@@H](O)[C@H](O)CO)[nH]n12)CCC3 [Compound 11b]
2. COc1ccc(-c2nn3c(=O)c4c5c(sc4nc3n2[C@@H]2O[C@H](COC(C)=O)[C@@H](OC(C)=O)[C@H](OC(C)=O)[C@H]2OC(C)=O)CCC5)cc1
3. CC(=O)OC[C@H]1O[C@@H](n2cnn3c(=O)c4c5c(sc4nc23)CCC5)[C@H](OC(C)=O)[C@@H](OC(C)=O)[C@@H]1OC(C)=O
4. O=c1c2c3c(sc2nc2[nH]c(-c4ccc([N+](=O)[O-])cc4)nn12)CCC3 [Compound 10c]
5. O=c1c2c3c(sc2nc2nc([C@@H](O)[C@H](O)[C@H](O)CO)[nH]n12)CCC3 [Compound 11d]

result:
1. 18.2
2. 0.0
3. 0.0
4. 20.2
5. 0.0
